List of IC50 values.
- studySystem: Nav1.7 (or SCN9A) channel; HEK cells stably transfected with hSCN9A (Homo sapiens, UniProt Q15858)
- Construct: expressed in transfected cells
- Sequence (Q15858 whole entry): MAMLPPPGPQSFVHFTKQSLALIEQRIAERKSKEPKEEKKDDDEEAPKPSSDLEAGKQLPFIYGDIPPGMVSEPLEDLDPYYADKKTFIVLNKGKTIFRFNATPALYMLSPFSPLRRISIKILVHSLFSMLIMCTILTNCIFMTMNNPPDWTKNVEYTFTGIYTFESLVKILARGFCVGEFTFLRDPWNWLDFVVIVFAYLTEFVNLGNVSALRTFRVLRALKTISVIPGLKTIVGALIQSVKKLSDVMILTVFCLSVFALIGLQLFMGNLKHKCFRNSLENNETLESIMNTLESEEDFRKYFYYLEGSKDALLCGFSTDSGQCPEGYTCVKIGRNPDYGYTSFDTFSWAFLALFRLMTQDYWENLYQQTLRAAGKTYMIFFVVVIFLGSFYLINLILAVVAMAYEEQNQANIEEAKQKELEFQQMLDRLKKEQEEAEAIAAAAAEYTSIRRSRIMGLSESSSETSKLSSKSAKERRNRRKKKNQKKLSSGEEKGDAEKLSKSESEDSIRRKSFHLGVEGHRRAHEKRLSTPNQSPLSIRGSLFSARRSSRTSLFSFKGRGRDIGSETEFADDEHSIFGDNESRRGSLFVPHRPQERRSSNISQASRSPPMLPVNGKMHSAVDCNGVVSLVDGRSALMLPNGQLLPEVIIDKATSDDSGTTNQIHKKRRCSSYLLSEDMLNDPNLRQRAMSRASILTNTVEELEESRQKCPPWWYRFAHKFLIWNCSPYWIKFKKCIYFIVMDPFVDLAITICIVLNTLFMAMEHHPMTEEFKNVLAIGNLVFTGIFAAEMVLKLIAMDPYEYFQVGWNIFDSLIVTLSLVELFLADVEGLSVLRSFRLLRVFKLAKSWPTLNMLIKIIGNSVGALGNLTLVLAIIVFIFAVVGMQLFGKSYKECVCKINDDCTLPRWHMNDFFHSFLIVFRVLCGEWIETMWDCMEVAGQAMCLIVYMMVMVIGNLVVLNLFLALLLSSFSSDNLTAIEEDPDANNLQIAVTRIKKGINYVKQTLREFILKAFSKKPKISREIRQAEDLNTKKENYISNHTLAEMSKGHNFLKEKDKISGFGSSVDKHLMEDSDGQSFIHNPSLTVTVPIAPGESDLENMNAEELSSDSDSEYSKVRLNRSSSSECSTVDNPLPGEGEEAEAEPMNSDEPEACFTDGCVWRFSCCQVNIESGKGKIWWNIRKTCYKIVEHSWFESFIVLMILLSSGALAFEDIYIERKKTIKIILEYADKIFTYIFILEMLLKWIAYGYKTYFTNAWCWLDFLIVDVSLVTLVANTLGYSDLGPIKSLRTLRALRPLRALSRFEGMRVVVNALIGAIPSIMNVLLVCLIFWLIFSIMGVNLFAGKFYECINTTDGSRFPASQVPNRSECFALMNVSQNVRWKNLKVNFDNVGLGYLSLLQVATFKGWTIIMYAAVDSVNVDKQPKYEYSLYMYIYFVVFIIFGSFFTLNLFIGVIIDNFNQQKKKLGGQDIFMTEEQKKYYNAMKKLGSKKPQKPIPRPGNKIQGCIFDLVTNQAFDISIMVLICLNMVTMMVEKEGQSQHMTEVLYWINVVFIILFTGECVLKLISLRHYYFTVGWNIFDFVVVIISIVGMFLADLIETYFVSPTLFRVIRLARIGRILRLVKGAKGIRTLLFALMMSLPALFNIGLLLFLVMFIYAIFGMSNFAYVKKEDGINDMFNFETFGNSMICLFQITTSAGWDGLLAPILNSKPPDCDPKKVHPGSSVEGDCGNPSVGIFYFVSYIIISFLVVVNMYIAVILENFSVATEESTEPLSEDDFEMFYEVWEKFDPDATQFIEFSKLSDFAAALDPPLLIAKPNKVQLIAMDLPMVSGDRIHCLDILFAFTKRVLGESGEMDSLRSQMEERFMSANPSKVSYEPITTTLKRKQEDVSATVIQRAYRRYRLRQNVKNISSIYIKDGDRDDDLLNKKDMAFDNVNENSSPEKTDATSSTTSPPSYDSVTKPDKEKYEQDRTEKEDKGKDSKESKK
- assayProtocol: Nav1.7 block, PatchXpress 7000 automated whole-cell voltage clamp, estimated IC50 (EIC50)
- Assay type: cell-based
- recordedConditions: estimated IC50; hSCN9A HEK cells, PatchXpress platform; Examples 283-814
The response must be a number in nM with no trailing unit.

Some entries whose results are on file:
> print(dat)
                                   molecule  unitofmeasure  measuredvalue
1  Cc1cnsc1-c1ccccc1Oc1ccc(S(=O)(=O)Nc2ccc(F)cn2)cc1C#N [Example 577]             nM          11000
2  N#Cc1cc(S(=O)(=O)Nc2nccc(C(F)(F)F)n2)ccc1Oc1ccccc1-c1ccccc1 [Example 434]             nM          18000
3  Cn1nc(C(F)(F)F)cc1-c1ccc(Oc2cc(F)c(S(=O)(=O)Nc3ncc(F)s3)cc2F)cc1 [Example 682]             nM            710
4  N#Cc1cc(S(=O)(=O)Nc2nccs2)ccc1Oc1cc(Cl)ccc1-c1ccn[nH]1 [Example 711]             nM             40
5  O=S(=O)(Nc1cscn1)c1cc(Cl)c(Oc2ccc(F)cc2-c2ccnn2CCO)cc1F [Example 517]             nM           2200
6  N#Cc1cccc(-c2cc(C(F)(F)F)ccc2Oc2ccc(S(=O)(=O)Nc3ncns3)cc2C#N)c1 [Example 509]             nM             31
7  CC(C)(C)n1nccc1-c1cc(F)ccc1Oc1cc(F)c(S(=O)(=O)Nc2cscn2)cc1Cl [Example 519]             nM           1200
8  Cc1[nH]ncc1-c1cc(Cl)ccc1Oc1ccc(S(=O)(=O)Nc2nccs2)cc1C#N [Example 546]             nM             20

Reported IC50 ( O=S(=O)(Nc1ncns1)c1cc(F)c(Oc2cc(Cl)c(F)cc2-c2cn[nH]c2)cc1F [Example 752] ) = 2.1

Please fill in: IC50 reported for O=S(=O)(Nc1ncns1)c1cc(F)c(Oc2ccc(F)cc2-c2cn[nH]c2)cc1F [Example 756] = 11

---

- studySystem: Nav1.7 (or SCN9A) channel; HEK cells stably transfected with hSCN9A (Homo sapiens, UniProt Q15858)
- Construct: expressed in transfected cells
- assayProtocol: Nav1.7 block, PatchXpress 7000 automated whole-cell voltage clamp, estimated IC50 (EIC50)
- Assay type: cell-based
- recordedConditions: estimated IC50; hSCN9A HEK cells, PatchXpress platform; Examples 283-814
IC50 less than 300 nM is criterion met; IC50 greater than or equal to 300 nM is criterion not met.

> print(dat)
                            substancesmiles   qualitativelabel
1  CN1CCN(c2ccc(Oc3ccc(S(=O)(=O)Nc4nccs4)cc3C#N)cc2)C1=O  criterion not met
2  Cc1cc(C)n(-c2ccc(Oc3ccc(S(=O)(=O)Nc4nccs4)c(F)c3)cc2)n1  criterion not met
3  O=S(=O)(Nc1cscn1)c1ccc(Oc2ccc(Cl)cc2-c2cn[nH]c2)cc1  criterion not met
4  Cn1nccc1-c1cc(Cl)ccc1Oc1ncc(S(=O)(=O)Nc2nccs2)cc1C#N      criterion met
5  COc1cc(Oc2ccc(S(=O)(=O)Nc3ccc(F)cn3)cc2C#N)ccc1-n1cnc(C)c1  criterion not met

Report whether reported IC50 is lower than 300 nM (strictly) for `Cn1nc(C(F)(F)F)cc1-c1ccc(Oc2ccc(S(=O)(=O)Nc3nccs3)cc2C#N)cc1F`
criterion not met

Confirm or reject: IC50 of `N#Cc1cc(S(=O)(=O)Nc2nccs2)ccc1Oc1ccc(-c2cccc(C(F)(F)F)n2)cc1` lies strictly below 300 nM
criterion not met

Strictly below 300 nM: is that where IC50 of `N#Cc1cc(S(=O)(=O)Nc2nccs2)ccc1Oc1cccc(-c2cccc(N)n2)c1` sits?
criterion not met

Regarding `Cn1nccc1-c1cc(C2CC2)ccc1Oc1ccc(S(=O)(=O)Nc2nccs2)cc1F` , kindly confirm whether its IC50 is beneath 300 nM.
criterion met

Hello, I'm reviewing records and need to know if IC50 of `COCc1cccc(-c2cc(Oc3ccc(S(=O)(=O)Nc4ncc(F)s4)cc3C#N)ccc2Cl)c1` is below 300 nM. Could you check?
criterion not met

---

- studySystem: Nav1.7 (or SCN9A) channel; HEK cells stably transfected with hSCN9A (Homo sapiens)
- Construct: expressed in transfected cells
- assayProtocol: Nav1.7 block, PatchXpress 7000 automated whole-cell voltage clamp, estimated IC50 (EIC50)
- Assay type: cell-based
- recordedConditions: PatchXpress platform; hSCN9A HEK cells held at V1/2 of inactivation; estimated IC50
Catalogue of pIC50 values
Note on pIC50: it is the negative log10 of concentration, concentration in mol/L.

Consider `O=S(=O)(Nc1nccs1)c1ccc(Oc2cc(C(F)(F)F)nn2-c2ccccc2F)c(F)c1` . Its measured pIC50 is 6.15

# compound `O=S(=O)(Nc1nccs1)c1ccc(Oc2ccc(-c3cocn3)cc2)c(F)c1` ; its pIC50 = 4.49

Entry CN1C(=O)CCC1c1ccccc1Oc1ccc(S(=O)(=O)Nc2ncns2)cc1C#N (centres unmarked) , pIC50 reported as 4.44

# pIC50 (compound: `Cc1nccn1-c1cc(Cl)ccc1Oc1ccc(S(=O)(=O)Nc2nccs2)cc1C#N` ) is 7.10

The compound listed as `N#Cc1cc(S(=O)(=O)Nc2ncc(Cl)s2)ccc1Oc1cc(C(F)(F)F)nn1Cc1ccccc1` shows pIC50 equal to 5.58

The reported value for `Cn1nc(C(F)(F)F)cc1-c1ccc(Oc2ccc(S(=O)(=O)Nc3nccs3)cc2C#N)cc1` in terms of pIC50 is 6.74

# pIC50 (compound: `COc1cc(-c2ccccc2Oc2ccc(S(=O)(=O)Nc3ncns3)cc2C#N)ccc1C#N` ) is 6.77

Summary for this compound, `N#Cc1ccc(-c2ccccc2Oc2ccc(S(=O)(=O)Nc3ncns3)cc2C#N)cc1` : pIC50 is 6.37

Reported pIC50 ( `N#Cc1cc(S(=O)(=O)Nc2ncc(Cl)s2)ccc1Oc1ccccc1-c1ccccc1` ) = 6.05

---

- studySystem: Nav1.7 (or SCN9A) channel; HEK cells stably transfected with hSCN9A (Homo sapiens)
- Construct: expressed in transfected cells
- assayProtocol: Nav1.7 block, PatchXpress 7000 automated whole-cell voltage clamp, estimated IC50 (EIC50)
- Assay type: cell-based
- recordedConditions: estimated IC50; hSCN9A HEK cells, PatchXpress platform; Examples 283-814
IC50: recorded values
# number only, unit nM dropped from output

Known results for compounds:
> print(dat)
                                   compound  unitofmeasure  measuredvalue
1  CCn1nc(C(F)(F)F)cc1-c1cccc(Oc2ccc(S(=O)(=O)Nc3nccs3)cc2C#N)c1 [Example 547]             nM            120
2  O=S(=O)(Nc1ncns1)c1cc(F)c(Oc2ccc(Cl)cc2-c2ccn[nH]2)cc1F [Example 637]             nM             16
3  Cc1cc(S(=O)(=O)Nc2cscn2)c(F)cc1Oc1ccc(F)cc1-c1ccnn1C [Example 626]             nM            120
4  N#Cc1cc(S(=O)(=O)Nc2ncc(Cl)s2)ccc1Oc1ccc(F)cc1-c1ccc(N)nc1 [Example 587]             nM            200
5  Cn1nccc1-c1ccc(Oc2ccc(S(=O)(=O)Nc3nccs3)cc2C#N)cc1 [Example 436]             nM           1300

// below: IC50 requested for another compound
For this compound ( N#Cc1cc(S(=O)(=O)Nc2ncc(Cl)s2)ccc1Oc1ccc(Cl)cc1-c1cn[nH]c1N [Example 583] ), measured IC50 is 13

---

- studySystem: Nav1.7 (or SCN9A) channel; HEK cells stably transfected with hSCN9A (Homo sapiens, UniProt Q15858)
- Construct: expressed in transfected cells
- assayProtocol: Nav1.7 block, PatchXpress 7000 automated whole-cell voltage clamp, estimated IC50 (EIC50)
- Type: cell-based
- recordedConditions: estimated IC50; hSCN9A HEK cells, PatchXpress platform; Examples 283-814
Quick list: IC50 per entry.
Value expressed in nM; do not type the unit.

Example compounds with recorded IC50:
> print(dat)
                                   compound  measuredvalue
1  Cn1nccc1-c1cc(F)ccc1Oc1cc(F)c(S(=O)(=O)Nc2nncs2)cc1Cl [Example 298]            140
2  N#Cc1cc(S(=O)(=O)Nc2ncc(Cl)cn2)ccc1Oc1ccccc1-c1ccccc1 [Example 430]          12000
3  CCn1nc(C(F)(F)F)cc1-c1ccc(Oc2ccc(S(=O)(=O)Nc3ccc(F)cn3)cc2C#N)cc1 [Example 367]           2400
4  N#Cc1cc(S(=O)(=O)Nc2cscn2)ccc1Oc1ccc(Cl)cc1-c1ccnn1C(F)F [Example 402]            250
5  Cn1nccc1-c1cc(OC(F)(F)F)ccc1Oc1ccc(S(=O)(=O)Nc2nccs2)cc1C#N [Example 783]            7.8

# input for lookup
Query Cn1nccc1-c1cc(Cl)ccc1Oc1ccc(S(=O)(=O)Nc2ncsc2F)cc1C#N [Example 602] yields IC50 of 1500
